test system: HOP-62 multicell spheroids with HUVEC/MSC, viability; experiment: Anticancer human tumor HOP-62 cell line growth inhibition [KRAS2]; details: second compound 3.16 µM; first compound 0.316 µM; active compounds read low;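 further: viability read after a week of compound exposure; 100% = DMSO vehicle-treated spheroids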
Assay metric: viability, T/C

Some entries whose results are on file:
Compound	Recorded result
CC1COCCN1c1cc(-c2ccnn2C)c2ccnc(-c3ccn[nH]3)c2n1 (stereo not given) + C=CC(=O)N1CCN(c2nc(=O)n(-c3c(C)ccnc3C(C)C)c3nc(-c4c(O)cccc4F)c(F)cc23)C(C)C1	11.7%
CC1OCC2(CCN(c3cnc(Sc4ccnc(N)c4Cl)c(N)n3)CC2)C1N (stereo not given) + COc1cc2nc(C)nc(NC(C)c3cc(N)cc(C(F)(F)F)c3)c2cc1OC1CCOC1	59.4%
CCNC(=O)CC1N=C(c2ccc(Cl)cc2)c2cc(OC)ccc2-n2c(C)nnc21 (stereo not given) + CNCc1ccccc1-c1csc(C(C)Nc2nc(C)nc3cc(OC)c(OC)cc23)c1	0.07%

Task item: Record request: viability, T/C value, item COc1cc2nccc(Oc3ccc(NC(=O)C4(C(=O)Nc5ccc(F)cc5)CC4)cc3)c2cc1OC + COc1cc2nc(C)nc(NC(C)c3cc(N)cc(C(F)(F)F)c3)c2cc1OC1CCOC1
Reply: 81.6%

Task item: Looking for the measured viability, T/C of CCN1CCN(Cc2ccc(Nc3ncc(F)c(-c4cc(F)c5nc(C)n(C(C)C)c5c4)n3)nc2)CC1 + CNCc1ccccc1-c1csc(C(C)Nc2nc(C)nc3cc(OC)c(OC)cc23)c1 , can you help?
Reply: 0.17%

Task item: Please look up its viability, T/C: CC(C)NCC(C(=O)N1CCN(c2ncnc3c2C(C)CC3O)CC1)c1ccc(Cl)cc1 (stereo not given) + C=CC(=O)N1CCN(c2nc(OCC3CCCN3C)nc3c2CCN(c2cccc4cccc(C)c24)C3)CC1CC#N
Reply: 0.44%

Task item: Could you share which viability, T/C value was measured for CC(C)NCC(C(=O)N1CCN(c2ncnc3c2C(C)CC3O)CC1)c1ccc(Cl)cc1 (stereo not given) + CNCc1ccccc1-c1csc(C(C)Nc2nc(C)nc3cc(OC)c(OC)cc23)c1 ?
Reply: 0.27%

Task item: Query: viability, T/C; subject: CC1(C)CCC(CN2CCN(c3ccc(C(=O)NS(=O)(=O)c4ccc(NCC5CCOCC5)c([N+](=O)[O-])c4)c(Oc4cnc5[nH]ccc5c4)c3)CC2)=C(c2ccc(Cl)cc2)C1 + C=CC(=O)N1CCN(c2nc(OCC3CCCN3C)nc3c2CCN(c2cccc4cccc(C)c24)C3)CC1CC#N
Reply: 0.14%

Task item: Item COC(=O)c1ccc2c(C(=Nc3ccc(N(C)C(=O)CN4CCN(C)CC4)cc3)c3ccccc3)c(O)[nH]c2c1 + C=CC(=O)N1CCN(c2nc(=O)n(-c3c(C)ccnc3C(C)C)c3nc(-c4c(O)cccc4F)c(F)cc23)C(C)C1 has what recorded viability, T/C?
Reply: 29.9%

Task item: Fill in: viability, T/C of CCNC(=O)CC1N=C(c2ccc(Cl)cc2)c2cc(OC)ccc2-n2c(C)nnc21 (stereo not given) + C=CC(=O)N1CCN(c2nc(OCC3CCCN3C)nc3c2CCN(c2cccc4cccc(C)c24)C3)CC1CC#N is ___
Reply: 0.12%
